- System name: Albumin (Bos taurus) (UniProt P02769)
- Sequence (P02769 whole entry, looked up): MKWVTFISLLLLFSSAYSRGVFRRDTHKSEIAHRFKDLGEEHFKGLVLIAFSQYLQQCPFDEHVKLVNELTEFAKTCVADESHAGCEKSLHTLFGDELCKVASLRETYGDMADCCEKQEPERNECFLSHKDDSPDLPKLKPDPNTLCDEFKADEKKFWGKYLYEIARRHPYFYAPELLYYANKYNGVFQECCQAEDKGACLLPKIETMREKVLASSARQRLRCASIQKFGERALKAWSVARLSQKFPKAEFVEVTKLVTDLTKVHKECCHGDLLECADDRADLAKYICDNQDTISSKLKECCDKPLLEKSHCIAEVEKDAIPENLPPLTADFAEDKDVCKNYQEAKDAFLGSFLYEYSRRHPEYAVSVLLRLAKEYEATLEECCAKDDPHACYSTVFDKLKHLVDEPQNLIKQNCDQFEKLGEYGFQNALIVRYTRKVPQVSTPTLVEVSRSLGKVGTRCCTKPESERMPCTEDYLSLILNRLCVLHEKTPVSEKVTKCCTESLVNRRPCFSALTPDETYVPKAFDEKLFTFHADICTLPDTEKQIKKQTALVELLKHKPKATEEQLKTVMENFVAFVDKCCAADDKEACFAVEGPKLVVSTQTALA
- Experiment: bovine serum albumin binders on microarray, profiling panel, artefact control for SMM control protein annotation, biochemical, small-molecule microarray, Alexa647 label, 635/667 nm fluorescence (AID 1118);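 further: score merges 667 nm emission intensity and signal-to-noise per printed compound spot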
- Recorded conditions: BSA-A647 binding, fluorescence 635 nm, higher = more signal
# cutoff 0.6 applies to composite z-score; >= gives label 1, < gives label 0

// query Decide: is the reported value of composite z-score for CCCC[C@@H]1C[C@H]1[C@@H](NC(=O)C(C)(C)C)c1ccc(C(F)(F)F)cc1 equal to or greater than 0.6?
// result label 0

// query Decide: is the reported value of composite z-score for CCOC(=O)[C@H]1C/C=C/C[C@H](C(=O)OCC)C(=O)O[C@H]2[C@@H](OC)O[C@H](CO)[C@@H](OC(=O)c3c(OC)cccc3OC)[C@@H]2OC1=O equal to or greater than 0.6?
// result label 0

// query Decide: is the reported value of composite z-score for CCCc1cc2c(n1Cc1cc(F)cc(F)c1)C(C)C1CN(C(=O)c3ccccc3)C(C)(C(=O)OC)C21 (stereo not drawn) equal to or greater than 0.6?
// result label 1

***
// query Decide: is the reported value of composite z-score for CC[C@@H]1C=C(C(=O)O)[C@H](c2ccc(Br)cc2)N1S(=O)(=O)c1ccc(C)cc1 equal to or greater than 0.6?
// result label 1

// query Decide: is the reported value of composite z-score for COC(=O)[C@@]1(Cc2ccc(F)cc2)[C@H]2c3cc(C(=O)N(C)C)n(Cc4cc(F)c(F)c(F)c4)c3C[C@H]2CN1C(=O)c1ccccc1 equal to or greater than 0.6?
// result label 1

// query Decide: is the reported value of composite z-score for C=C[C@H](C)[C@@H](OC(=O)Nc1ccc(OC)cc1)c1ccc(O)c2ccccc12 equal to or greater than 0.6?
// result label 0

// query Decide: is the reported value of composite z-score for CCCCCN1CC=CC23O[C@@H]4/C=C\CCC(C)OC(=O)C4[C@H]2C(=O)N(C(C)CO)[C@@H]3C1=O (stereo partly drawn) equal to or greater than 0.6?
// result label 0

====

- Experiment: adipocyte viability effects, profiling panel, cell-based, 3T3-L1 adipocytes, calcein-AM fluorescence, 48 h, basal (AID 1163); further: test concentration not given here
- Recorded conditions: 3T3-L1 adipocytes viability, higher = more signal
Measured quantity: z-score

// query # get_value(readout='z-score', item= C=CCOC(=O)[C@H]1[C@@H]2C(=O)O[C@@H](c3ccccc3)[C@@H](c3ccccc3)N2[C@@H](c2ccc(OCCOC(=O)[C@H]3C[C@H]4C(=O)N[C@@H](CCCCN(C)C)C(=O)N4[C@H]3c3ccc(O)cc3)cc2)[C@]12C(=O)Nc1ccc(I)cc12 )
// result -0.032

// query # get_value(readout='z-score', item= COC(=O)[C@@]1(Cc2ccc(OC)cc2)[C@H]2c3cc(C(=O)N4CCCC4)n(Cc4ccc(O)c(OC)c4)c3C[C@H]2CN1C(=O)c1ccccc1 )
// result 0.174

// query # get_value(readout='z-score', item= CCCC[C@H]1OB(O)C[C@H]2C1=C(COC)C[C@H]1C(=O)N(C)C(=O)[C@H]12 )
// result -0.671

Please look at the following compound next.
// query # get_value(readout='z-score', item= [N-]=[N+]=NCc1ccccc1[C@@H]1OC(c2ccc(OCCCO)cc2)=N[C@]1(Cc1ccccc1)C(=O)NCC(O)CO (some centres undefined) )
// result -1.16
